Assay System: NS3 (West Nile virus) (UniProt K4FQI5)
Sequence (K4FQI5 as listed by the source): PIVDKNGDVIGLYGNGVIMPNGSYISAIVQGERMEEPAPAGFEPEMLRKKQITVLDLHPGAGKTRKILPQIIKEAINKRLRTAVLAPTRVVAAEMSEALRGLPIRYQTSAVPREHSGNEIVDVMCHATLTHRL
Method Summary: Functional biochemical assay to identify treatments for viral infectious disease that targets West Nile NS2B-NS3 protease. Utilizing a direct enzyme activity measurement method, reading the fluorescence intensity is used to characterize the relative potency of inhibitors as % inhibition. Synthetic construct has been made based on West Nile virus (strain NY-99) by Centre for Medicines Discovery, University of Oxford, and the assay has been performed by Stanford University.The protocol is publicly available: dx.doi.org/10.17504/protocols.io.ewov1dy37vr2/v1
Study Conditions: Concentration 50.0 uM, Number of replicates 1.0
Readout Kind: inhibition
Number plus unit, in that order.

{"Sample Smiles": "Cc1c(C=O)c2ccccn2c1C(=O)c1ccncc1", "inhibition": "63.6%"}
{"Sample Smiles": "CC[C@H]1CO[C@H](C)CN1c1ccc(C=O)cn1", "inhibition": "61.8%"}
{"Sample Smiles": "O=Cc1ccc(N2CCC(C(=O)O)CC2)o1", "inhibition": "65.4%"}

// next entry
Tell me the measured inhibition of Cc1nc(C=O)c2ccccn12 , please.
33.8%
